Cited source: ChEMBL document CHEMBL1155434

# target-or-test-system: Alpha-1B adrenergic receptor (Homo sapiens, UniProt P35368)
# Sequence (P35368 whole entry): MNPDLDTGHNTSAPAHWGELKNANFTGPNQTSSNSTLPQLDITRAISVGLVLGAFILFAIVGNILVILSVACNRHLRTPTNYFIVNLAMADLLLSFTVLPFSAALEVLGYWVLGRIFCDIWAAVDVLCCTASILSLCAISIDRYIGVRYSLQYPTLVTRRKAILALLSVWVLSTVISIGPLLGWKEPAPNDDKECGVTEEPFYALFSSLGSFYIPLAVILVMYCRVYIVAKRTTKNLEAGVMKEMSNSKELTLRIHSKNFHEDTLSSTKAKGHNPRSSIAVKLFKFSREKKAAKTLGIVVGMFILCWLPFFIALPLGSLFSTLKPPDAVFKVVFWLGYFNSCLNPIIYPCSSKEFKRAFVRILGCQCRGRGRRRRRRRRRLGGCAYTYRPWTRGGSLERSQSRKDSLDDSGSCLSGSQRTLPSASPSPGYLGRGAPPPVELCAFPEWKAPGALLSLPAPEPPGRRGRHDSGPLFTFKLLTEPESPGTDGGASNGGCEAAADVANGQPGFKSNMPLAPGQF
pKi: −log10 of the molar value.
Answer rule not met if pKi is under 7, and rule met if it is 7 or more.

# molecule, group
rows = [
    ("Cc1ccccc1OCCNCC1COC(c2ccccc2)(c2ccccc2)O1 (racemic)", "rule not met"),
    ("COc1cccc(OCCNCC2COC(c3ccccc3)(c3ccccc3)O2)c1OC (racemic)", "rule not met"),
    ("CCOc1ccccc1OCCNCC1COC(c2ccccc2)(c2ccccc2)O1 (racemic)", "rule met"),
    ("COc1cc(OC)cc(OCCNCC2COC(c3ccccc3)(c3ccccc3)O2)c1 (racemic)", "rule not met"),
    ("c1ccc(-c2ccccc2OCCNCC2COC(c3ccccc3)(c3ccccc3)O2)cc1 (racemic)", "rule not met"),
    ("c1ccc(-c2ccc(OCCNCC3COC(c4ccccc4)(c4ccccc4)O3)cc2)cc1 (racemic)", "rule not met"),
    ("COc1ccccc1OCCNCC1COC(c2ccccc2)(c2ccccc2)O1 (racemic)", "rule met"),
]

Here is another molecule to look at.
query: Dear colleague, could you confirm whether CCCN(CCC)C1CCc2cccc(O)c2C1 (centres undefined) [8-OH-DPAT] has pKi at or above 7?
result: rule not met

---

# Species: Homo sapiens
# measurement-description: Selectivity ratio of pKi for human 5-HT1A receptor to pKi for human alpha1 adrenergic receptor
value-kind: Ratio pKi
API doc: respond with a numeric literal and nothing else, no unit.

# compound, Ratio pKi
measured = [
    ("CCOc1ccccc1OCCNCC1COC(c2ccccc2)(c2ccccc2)O1 (racemic)", 7),
    ("c1ccc(OCCNCC2COC(c3ccccc3)(c3ccccc3)O2)cc1 (racemic)", 3),
    ("CC(C)Oc1ccccc1OCCNCC1COC(c2ccccc2)(c2ccccc2)O1 (racemic)", 1),
]

query: Report Ratio pKi for COc1ccccc1OCCNCC1COC(c2ccccc2)(c2ccccc2)O1 (racemic) please.
result: 15

---

# System: Spleen
# measurement-description: Inhibition of noradrenaline-induced contraction in rat spleen
# Format: functional
# pKb per record follows
Lab note: jot down the number only; don't add units.

# molecule, value-kind, recorded-value
rows = [
    ("COc1ccccc1OCCNCC1CSC(c2ccccc2)(c2ccccc2)S1 (racemic)", "pKb", 5.87),
    ("COc1cc(OC)cc(OCCNCC2COC(c3ccccc3)(c3ccccc3)O2)c1 (racemic)", "pKb", 5.49),
    ("COc1ccccc1CCCNCC1COC(c2ccccc2)(c2ccccc2)O1 (racemic)", "pKb", 5.97),
    ("COc1ccccc1N1CCN(CCN2C(=O)CC3(CCCC3)CC2=O)CC1 [BMY-7378]", "pKb", 7.48),
]

Now for a further molecule.
query: Any idea what its pKb is? The molecule is Cc1ccccc1OCCNCC1COC(c2ccccc2)(c2ccccc2)O1 (racemic)
result: 5.73
